Biological target: Inadl_10, Q8NI35
Sequence (Q8NI35 1673-1763): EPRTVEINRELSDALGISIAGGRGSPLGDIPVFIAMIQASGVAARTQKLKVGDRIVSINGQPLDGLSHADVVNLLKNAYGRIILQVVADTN
Assay: holdup assay
Design: key: below the threshold = too weak to quantify, mostly under pKd 3.1 to 4
Settings: plain residues with an end cap or a label only (N-terminal biotin on a linker: ttds)
METRIC_NAME: pKd

Known results for binders:
binder="SVWLRKETRV [CYSLTR2, Q9NS75]" value_reported="below the threshold"
binder="GQDSREETQL [KCNT2, Q6UVM3]" value_reported="below the threshold"
binder="RSLEEEESQL [GRASP, Q7Z6J2]" value_reported="below the threshold"
binder="PKTPPTDTSV [KIR3DL3, Q8N743]" value_reported="below the threshold"

Now look at this entry.
Query block: For the binder VLRLQSETSV [VANGL1, Q8TAA9] , report pKd.
Result block: below the threshold
